assay: folding stability dG unfold from trypsin proteolysis; higher = more stable
experimental_readout: folding stability dG unfold (kcal/mol)
Give bare numbers, in kcal/mol.

| entry_sequence | folding stability dG unfold / kcal/mol |
| --- | --- |
| SAGGSAGGSADDEVVEIVDVLPLPNRPVLVVKVRGPDGQTKVYDPATGKWLTPEEAKAALSSAGGSAGGSAG [r3_206_TrMRF] | 1.09 |
| SAGGSAGGMHINAPGSIEELEEKLGGPIAEATLEGPGTFTLTLENGVPITVSFDDPEQLEELIESAGGSAGG [r6_13_TrMRF] | 0.524 |
| SAGGSAGGSAGTITTTTDPATGEYTVTIPIASGDGTPVGTIPVTVPKSDPSAAAAFIAATSAGGSAGGSAGG [r11_77_JUSTAS] | 0.106 |
| SAGGSAGGSAVVALTPDGALAVWFPEKGVVVVYNPATGTYTVLTVDADNTVTLEDVPPNTDVFSAGGSAGGS [r12_997_TrMRF] | 1.46 |

For every item below, please supply its folding stability dG unfold.
1. SAGGSGPPVLVRLEVEVLGEPYTLTLPVPASLIHPSQRVRFRVRVVSVDPVNNRVTVRIESVELYPSAGGSA [r2_479_TrMRF]
2. SAGGSLLEQEAAARGYQVEIERIPGTGVYLVTLTPPDGSRVVVTVEVVKTPKTGLVELRTLETRELPPSAGG [r13_936_JUSTAS]
3. SAGMVVRITVLPEGEEREFVVAATPEEARELLEELGYEVEEFPELPVLVARRPDAVVLVEFIPVAPDALSAG [r5_248_TrMRF]

1: 2.75; 2: 1.24; 3: 1.59

* * *

experiment: folding stability dG unfold (combined trypsin and chymotrypsin); higher = more stable
experimental_readout: folding stability dG unfold

Some sequences with recorded folding stability dG unfold:
| entry_sequence | folding stability dG unfold |
| --- | --- |
| SAGGSAGGSAGGMITTGITVSATDPNSSTSYTVTVPSSVPSSTFPANTAVGSAALAKLLASAGGSAGGSAGG [r17_412_JUSTAS] | -0.449 kcal/mol |
| SAGSMRTRKYEVERGEDEIVFPLPDGKVLRLPPDVGATVEVEYDPDGPPVRVTVRFPDGADYVLPYEELSAG [r5_45_JUSTAS] | 0.69 kcal/mol |
| SAGEGSRSPGVVLHVTTPTEPLVVREPVAPDEDPEAVLERLAAEVRAALGPDTTVSGEVLSPAELARAASAG [r5_583_JUSTAS] | -0.738 kcal/mol |
| SAGNPSLVKETIIPFTLPDGSEVKLTVKTDPSTGKVTMPIETKDEKVKAKAIELAKKIAEELGFPEVGLSAG [r5_99_JUSTAS] | 0.261 kcal/mol |
| SAGGSAGGSAGMRKYTWPFRIPLGGKPFEIRVEMEYDPSSGKHRIEITPEAKDLIKKKIFSAGGSAGGSAGG [r11_91_TrROS] | 0.875 kcal/mol |

List the reported folding stability dG unfold of each sequence below.
1. SAGGSAGGSAGPESRTITLEDPGSLEEAIERALATLPPDTTVTVTFGDEPVELNAATLRALSAGGSAGGSAG [r3_50_JUSTAS]
2. SPVKIRIIVPKGMDPEMANFIVKEIMKHLGLPPGAPVEILPWEDLQKNPDVHQALEEAEKEGADIVILIRSA [r9_1147_TrROS]
3. SAGGSAGGKETKTITMIIKVKDENGKELKAGDKVEIEINGKKITIEVTYNKKTGYLVVKATIKPSAGGSAGG [r6_657_TrROS_Hall]
4. SAGGMELKVVTLEATSGRREDAGLVPAALEEGARELALAHPELRILGADMEVEPLGEEYVARIPLVVGSAGG [r13_305_TrMRF]
5. SAGGSAGGSAMLRIKIYYKKNGEEYEIEVEGSLEEALKEAAKKLGLSEDEIKKIEIEELPESAGGSAGGSAG [r3_79_TrROS_Hall]
6. SAGGMTPEELEAAARAAAAALRAELEAGDPDVEVDLEVDPEKGTATFTVTDRATGRPRTLTVPFAELASAGG [r13_354_JUSTAS]

1. < -1 kcal/mol
2. 3.84 kcal/mol
3. 3.37 kcal/mol
4. < -1 kcal/mol
5. 3.41 kcal/mol
6. 1.53 kcal/mol
